Just for reference, ChEMBL document CHEMBL1201862 is where these values come from.

Tested on: SW-620
experiment.notes: NCI tumour cell line growth inhibition, 48 h
Structures can show the parent of a compound that is named as a salt. The source made the active and inactive calls. Rule as the data show it: active = GI50 up to about 1.1 µM and inactive = higher.
endpoint.label: GI50

Below are worked cases with known answers.
Clc1cc(Cl)ncn1 :: > 100 µM (inactive)
O=c1oc2ccccc2cc1-c1nc2ccccc2c(=O)[nH]1 :: > 100 µM (inactive)
CNNCc1ccc(C(=O)NC(C)C)cc1 [PROCARBAZINE HYDROCHLORIDE] :: > 500 µM (inactive)
O=C1C=C(C2=C(C3=CC(=O)c4ccccc4C3=O)C(=O)c3ccccc3C2=O)C(=O)c2ccccc21 :: 3.79 µM (inactive)
CCCC(CCC)C(=O)O [VALPROIC ACID] :: 8530 µM (inactive)
COc1c(/C=C/C=O)cc2c(c1OC)OCO2 :: 51.2 µM (inactive)

Would you mind listing GI50 for each of the following molecules?
1. COc1cc(/C=C2\C[C@H]3[C@@H]4CC=C5C[C@@H](OC(C)=O)CC[C@]5(C)[C@H]4CC[C@]3(C)\C2=N\O)cc(OC)c1OC
2. COc1ccc(-n2c3c(c4cc(O)ccc42)C(=O)c2ccccc2C3=O)cc1
3. CCCSc1cc(Cl)c(C)cc1S(=O)(=O)n1ccnc1OCCCN(C)C
4. O=c1[nH]c(S)nc2c1sc(=S)n2-c1ccccc1
5. O=[N+]([O-])C(=C(N1CCOCC1)N1CCOCC1)/C(Cl)=C(\Cl)Br
6. Cc1ccc(S(=O)(=O)N2CCSCCSCCN(S(=O)(=O)c3ccc(C)cc3)CCN(S(=O)(=O)c3ccc(C)cc3)CC2)cc1

Result:
1. 7 µM (inactive)
2. > 100 µM (inactive)
3. > 100 µM (inactive)
4. > 100 µM (inactive)
5. 15.5 µM (inactive)
6. > 100 µM (inactive)

Would you mind listing GI50 for each of the following molecules?
1. O=C(c1cscc1CCc1ccccc1)c1cscc1CCc1ccccc1
2. CO/C(=C/C(=O)C(Cl)(Cl)Cl)CC/C(=C\C(=O)C(Cl)(Cl)Cl)OC
3. COc1ccc(Nc2nc3ccccc3n3cccc23)cc1OC
4. COc1ccc2c(c1)C(=O)OCCC2
5. O=C1C2C(C(=O)N1c1ccccc1)C1c3ccccc3C2C2C(=O)N(c3ccccc3)C(=O)C21 (configuration not stated)
6. Cc1cccc(N(CCC#N)S(=O)(=O)c2ccccc2)c1
7. CC(=O)c1sc(Nc2nnc(-c3ccc(-c4nnc(Nc5nc(C)c(C(C)=O)s5)o4)cc3)o2)nc1C
8. Cc1ccc(-n2c(O)c(C#N)c3[nH]nc(N)c3c2=O)cc1

Result:
1. > 100 µM (inactive)
2. 53 µM (inactive)
3. 16.2 µM (inactive)
4. > 100 µM (inactive)
5. 6.12 µM (inactive)
6. > 100 µM (inactive)
7. > 100 µM (inactive)
8. > 100 µM (inactive)

Would you mind listing GI50 for each of the following molecules?
1. CCN(CC)CCN(C)CCc1ccc(Br)cc1
2. CC(C)c1ccccc1NC(=O)CCC(=O)NN

Result:
54.8 µM (inactive)
> 100 µM (inactive)

###

System: DMS-114
experiment.notes: NCI tumour cell line growth inhibition, 48 h
Calls of active or inactive are those of the source. Cut-off read from the data, not from the text of the source: active = GI50 up to about 1.1 µM and inactive = higher.
endpoint.label: GI50

Below are worked cases with known answers.
NCCCCNCCCNC(=O)c1nc(-c2csc(CCN)n2)sc1Cl :: > 100 µM (inactive)
COC(=O)/C(C=O)=C/Sc1ccccc1 :: 16.7 µM (inactive)
CN(C)CC1CC/C(=C\c2ccc(Cl)cc2)C1=O (stereo unspecified) :: 7.52 µM (inactive)
CC/C(SC)=[N+](\C)[O-] :: > 39 µM (inactive)
CC(=O)O[C@@H]1CC(C)C2CC2C2=C(C(O)OC2O)[C@@H]1C(C)CCC=C(C)C (stereo partly specified) :: 23.2 µM (inactive)

Would you mind listing GI50 for each of the following compounds?
1. O=CC[C@H]1CCc2ccccc2C12CCC(=O)CC2
2. C=C1C(=O)OC2/C=C(\C=O)CC/C=C(\C)C(O)C[C@@H]12 (stereo partly specified)
3. O=C1C(Cl)=C(Cl)C(=O)N1C1C2CC3CC(C2)CC1C3 (stereo unspecified)
4. COc1ccc2[nH]c3c(c2c1)[C@H]1CCC(C(C)(C)C)C[C@H]1[C@H]1C(=O)N(c2ccccc2)C(=O)[C@@H]31 (stereo partly specified)
5. Cc1ccc2nc(NC(=O)C(=O)C(C#N)c3nc4ccccc4s3)sc2c1 (stereo unspecified)
6. Cc1ccccc1NC(=O)C(=O)C(C#N)c1ccccc1C (stereo unspecified)

Result:
["33.8 µM (inactive)", "11.7 µM (inactive)", "> 100 µM (inactive)", "21.9 µM (inactive)", "24.8 µM (inactive)", "> 100 µM (inactive)"]

###

Test system: IGROV-1
experiment.notes: NCI tumour cell line growth inhibition, 48 h
Active and inactive are the calls of the source. Rule as the data show it: active = GI50 up to about 1.1 µM and inactive = higher.
endpoint.label: GI50

Below are worked cases with known answers.
CN(C)C(=O)N(CCCl)N=O :: > 100 µM (inactive)
O=C(CNC(=O)OCc1ccccc1)NCCCCC(NC(=O)OCc1ccccc1)C(=O)NC(CCCCNC(=O)CNC(=O)OCc1ccccc1)C(=O)OCc1ccccc1 (stereo unspecified) :: > 62.5 µM (inactive)
O=C(/C=C/c1ccc(C(F)(F)F)cc1)c1c([O-])on[n+]1-c1ccccc1 :: 1.86 µM (inactive)
O=[N+]([O-])c1ccc(/N=N/c2c(O)ccc3cc(S(=O)(=O)O)ccc23)cc1 :: > 100 µM (inactive)
O=C1C2=C(c3ccccc31)C(c1ccccc1Cl)NC(S)=N2 (stereo unspecified) :: 56.8 µM (inactive)

--- query ---
Task: Record `CN(C)c1cccc(NC2=NCCO2)c1` : what is its GI50 with IGROV-1?
Result: > 100 µM (inactive)

###

Tested on: KM12
experiment.notes: NCI tumour cell line growth inhibition, 48 h
Activity calls are given as the source filed them. Rule as the data show it: active = GI50 up to about 1.1 µM and inactive = higher.
Could you please report measured GI50 for the items listed next?

O=C1C2=C(c3ccccc31)C(c1ccccc1Cl)NC(S)=N2 (configuration not stated) :: 44.5 µM (inactive)
CC(C)NC(=O)CN1CCN(C2=CC(=O)c3c(O)ccc(O)c3C2=O)CC1 :: 16.6 µM (inactive)
N#CC1C(=S)NC(c2ccccc2)=CC12CCCCC2 (configuration not stated) :: 22.9 µM (inactive)
OC(c1ccc(F)cc1)C(F)(F)c1nc2ccccc2o1 (configuration not stated) :: 44.3 µM (inactive)
O=[N+]([O-])c1nccn1COCCF :: > 100 µM (inactive)

Would you mind listing GI50 for each of the following compounds?
1. CN1c2ccccc2N(C)C23N(C)c4ccccc4N(C)C12N(C)c1ccccc1N3C (configuration not stated)
2. CC(Nc1cccc(Cl)c1)c1ccncc1 (configuration not stated)
3. COc1ccc(/C=C/C(=O)c2sc(-c3cccnc3)nc2C)cc1

Result:
1. > 100 µM (inactive)
2. > 100 µM (inactive)
3. 15.3 µM (inactive)

Would you mind listing GI50 for each of the following compounds?
1. O=C1CC2=CCCC2O1 (configuration not stated)
2. OC1(c2ccccc2)C2CC=CC2C1(c1ccccc1)c1ccccc1 (configuration not stated)
3. Nc1ncn([C@H]2C[C@H](O)[C@@H](CO)O2)c(=O)n1
4. CCOC(=O)NC(NC1=NCCS1)(C(=O)OCC)C(F)(F)F (configuration not stated)

Result:
1: > 100 µM (inactive); 2: 20.6 µM (inactive); 3: 72.6 µM (inactive); 4: > 100 µM (inactive)

###

Tested on: XF498
experiment.notes: NCI tumour cell line growth inhibition, 48 h
Activity calls are given as the source filed them. Rule as the data show it: active = GI50 up to about 1.1 µM and inactive = higher.
Could you please report measured GI50 for the items listed next?

Would you mind listing GI50 for each of the following molecules?
1. COc1ccc(-c2ccccc2)c(N/N=C2\CCCNC2=O)c1
2. CSc1sc(=S)sc1C(=O)N(C)c1ccccc1
3. CN(C)C(=S)/N=c1\ss/c(=N\C(=S)N(C)C)n1-c1ccc(Cl)cc1
4. CC(C)OP(=O)(OC(C)C)C1=NN(c2ccc([N+](=O)[O-])cc2)C(P(=O)(OC(C)C)OC(C)C)=NN1c1ccc([N+](=O)[O-])cc1
5. COC(=O)/C(C#N)=C1\CCC(OC)N1C (centres undefined)
6. COc1ccc2[nH]c3c(c2c1)[C@H]1CCC(C(C)(C)C)C[C@H]1[C@H]1C(=O)N(c2ccccc2)C(=O)[C@@H]31 (some centres undefined)
7. CCC1CN2CCc3cc(OC)c(OC)cc3C2CC1CC1c2cc(OC)c(OC)cc2CCN1C(=O)C(Cc1c[nH]c2ccccc12)NC(=O)OC(C)(C)C (centres undefined)
8. O=C(O)[C@H](NS(=O)(=O)c1ccc2ccccc2c1)c1ccccc1

Result:
18.7 µM (inactive)
> 100 µM (inactive)
> 100 µM (inactive)
7.98 µM (inactive)
> 100 µM (inactive)
9.91 µM (inactive)
1.78 µM (inactive)
99.3 µM (inactive)

Task: Reported GI50 for C=C1C(=O)OC2/C=C(\C=O)CC/C=C(\C)C(O)C[C@@H]12 (some centres undefined) : what is it?
Result: 4.99 µM (inactive)
